experimental.system: ALK protein in H3122 (EML4-ALK) cells (Homo sapiens, UniProt Q9UM73)
Construct: EML4 (Echinoderm microtubule-associated protein-like 4, Q9HC35) fusion partner, variant 1; host or cells: NCI-H3122 lung adenocarcinoma cells; the other entry of the earlier key: EML4 (Q9HC35, Echinoderm microtubule-associated protein-like 4)
Sequence (Q9UM73 with tags, fused parts or gaps): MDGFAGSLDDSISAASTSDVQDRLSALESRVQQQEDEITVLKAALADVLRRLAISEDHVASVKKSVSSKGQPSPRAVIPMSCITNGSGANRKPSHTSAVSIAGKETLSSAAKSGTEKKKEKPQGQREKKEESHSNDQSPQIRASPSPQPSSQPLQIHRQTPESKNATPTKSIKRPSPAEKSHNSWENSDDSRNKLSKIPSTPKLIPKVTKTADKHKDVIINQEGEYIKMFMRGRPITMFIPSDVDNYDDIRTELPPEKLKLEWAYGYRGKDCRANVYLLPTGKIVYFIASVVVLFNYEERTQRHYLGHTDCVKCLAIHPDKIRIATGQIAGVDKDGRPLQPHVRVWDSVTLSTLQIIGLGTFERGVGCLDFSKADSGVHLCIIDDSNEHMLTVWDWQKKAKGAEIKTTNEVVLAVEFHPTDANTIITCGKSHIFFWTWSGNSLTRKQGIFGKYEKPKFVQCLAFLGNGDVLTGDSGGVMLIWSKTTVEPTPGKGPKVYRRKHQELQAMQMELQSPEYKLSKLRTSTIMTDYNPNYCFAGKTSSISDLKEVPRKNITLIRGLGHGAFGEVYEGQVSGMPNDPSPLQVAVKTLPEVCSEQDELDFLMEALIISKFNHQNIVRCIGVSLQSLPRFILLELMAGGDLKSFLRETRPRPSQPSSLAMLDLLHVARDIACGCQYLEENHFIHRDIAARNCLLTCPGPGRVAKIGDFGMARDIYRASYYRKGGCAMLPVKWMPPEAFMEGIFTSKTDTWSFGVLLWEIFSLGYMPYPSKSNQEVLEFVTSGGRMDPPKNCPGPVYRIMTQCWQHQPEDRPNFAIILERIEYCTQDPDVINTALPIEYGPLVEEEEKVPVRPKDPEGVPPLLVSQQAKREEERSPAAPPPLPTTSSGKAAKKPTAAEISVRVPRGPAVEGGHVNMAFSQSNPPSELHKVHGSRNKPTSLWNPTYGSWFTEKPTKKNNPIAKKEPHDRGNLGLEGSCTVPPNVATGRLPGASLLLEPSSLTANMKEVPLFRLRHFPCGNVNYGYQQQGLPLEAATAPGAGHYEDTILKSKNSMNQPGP
experiment.summary: Western blot of ALK protein level (degradation, DC50), ALK phosphorylation and downstream signaling in H3122 cells
Format: cell-based
details: ALK protein degradation in H3122 cells
Each entry below carries its recorded DC50.

Would you please look over these solved cases?
>  <compound>
COc1cc(N2CCN(C(=O)CCCCC(=O)N[C@H](C(=O)N3C[C@H](O)C[C@H]3C(=O)NCc3ccc(-c4scnc4C)cc3)C(C)(C)C)CC2)ccc1Nc1ncc(Cl)c(Nc2ccccc2P(C)(C)=O)n1

>  <experimental.system>
ALK protein in H3122 (EML4-ALK) cells (Homo sapiens, UniProt Q9UM73)

>  <DC50>
20 to 100 nM

$$$$
>  <compound>
COc1cc(N2CCC(N3CCN(C(=O)CCC(=O)NCCNc4cccc5c4C(=O)N(C4CCC(=O)NC4=O)C5=O)CC3)CC2)ccc1Nc1ncc(Cl)c(Nc2ccccc2P(C)(C)=O)n1 (stereo not shown)

>  <experimental.system>
ALK protein in H3122 (EML4-ALK) cells (Homo sapiens, UniProt Q9UM73)

>  <DC50>
10 to 50 nM

$$$$
>  <compound>
COc1cc(N2CCC(NC(=O)CCOCCOCCOCCNc3cccc4c3C(=O)N(C3CCC(=O)NC3=O)C4=O)CC2)ccc1Nc1ncc(Cl)c(Nc2ccccc2P(C)(C)=O)n1 (stereo not shown)

>  <experimental.system>
ALK protein in H3122 (EML4-ALK) cells (Homo sapiens, UniProt Q9UM73)

>  <DC50>
100 to 500 nM

$$$$

Request: Give the measured DC50 of `COc1cc(N2CCC(N3CCN(C(=O)CCOCCOCCOCCOCCOCCC(=O)N[C@H](C(=O)N4C[C@H](O)C[C@H]4C(=O)NCc4ccc(-c5scnc5C)cc4)C(C)(C)C)CC3)CC2)ccc1Nc1ncc(Cl)c(Nc2ccccc2P(C)(C)=O)n1` .
Response: 100 to 500 nM

Request: Give the measured DC50 of `COc1cc(N2CCC(N3CCN(C(=O)CCCCC(=O)N[C@H](C(=O)N4C[C@H](O)C[C@H]4C(=O)NCc4ccc(-c5scnc5C)cc4)C(C)(C)C)CC3)CC2)ccc1Nc1ncc(Cl)c(Nc2ccccc2P(C)(C)=O)n1` .
Response: 50 to 100 nM
